target: recombinant rat PIM-3 (Rattus norvegicus); assay: PIM-3 Assay (as Example A); details: averaged IC50; 30 μM ATP, 3.75 μM PIM2tide, 0.5 nM PIM-3
Where a name gives a salt, the structure may show the parent alone.
# strict inequality: IC50 < 2 nM yields condition met, everything else yields condition not met

Please determine if COc1cccc2ccc(-c3nnc4ccc([C@H](N5CC[C@H](N)C5)C(F)(F)F)cn34)nc12 [Example 8, dihydrochloride] is below 2 nM in terms of IC50.
condition not met

Please determine if FC(F)(F)[C@@H](c1ccc2nnc(-c3ccc4ccc(Cl)cc4n3)n2c1)N1C[C@@H]2C[C@H]1CN2 [Example 64, dihydrochloride] is below 2 nM in terms of IC50.
condition not met

Please determine if NC[C@H]1CCN(C(c2ccc3nnc(-c4ccc5cccc(OCC6CC6)c5n4)n3c2)C(F)(F)F)C1 (stereo partly drawn) [Example 21, dihydrochloride] is below 2 nM in terms of IC50.
condition not met

Please determine if COC[C@@H](C)Oc1cc(F)cc2ccc(-c3nnc4ccc([C@@H](N5CC[C@H](N)C5)C(F)(F)F)cn34)nc12 [Example 159, dihydrochloride] is below 2 nM in terms of IC50.
condition met

Please determine if COCC(COC)Oc1cccc2ccc(-c3nnc4ccc([C@@H](N5CC[C@H](N)C5)C(F)(F)F)cn34)nc12 [Example 271, dihydrochloride] is below 2 nM in terms of IC50.
condition not met

Please determine if CC(C)(O)COc1cc(F)cc2ccc(-c3nnc4ccc([C@@H](N5CC[C@H](N)C5)C(F)(F)F)cn34)nc12 [Example 259] is below 2 nM in terms of IC50.
condition met
